These data points were gathered from ChEMBL document CHEMBL1145254.

Reported ED50 by item:
Target Of Assay: Polyunsaturated fatty acid 5-lipoxygenase (Mus musculus) (UniProt P48999)
Sequence (P48999 whole entry): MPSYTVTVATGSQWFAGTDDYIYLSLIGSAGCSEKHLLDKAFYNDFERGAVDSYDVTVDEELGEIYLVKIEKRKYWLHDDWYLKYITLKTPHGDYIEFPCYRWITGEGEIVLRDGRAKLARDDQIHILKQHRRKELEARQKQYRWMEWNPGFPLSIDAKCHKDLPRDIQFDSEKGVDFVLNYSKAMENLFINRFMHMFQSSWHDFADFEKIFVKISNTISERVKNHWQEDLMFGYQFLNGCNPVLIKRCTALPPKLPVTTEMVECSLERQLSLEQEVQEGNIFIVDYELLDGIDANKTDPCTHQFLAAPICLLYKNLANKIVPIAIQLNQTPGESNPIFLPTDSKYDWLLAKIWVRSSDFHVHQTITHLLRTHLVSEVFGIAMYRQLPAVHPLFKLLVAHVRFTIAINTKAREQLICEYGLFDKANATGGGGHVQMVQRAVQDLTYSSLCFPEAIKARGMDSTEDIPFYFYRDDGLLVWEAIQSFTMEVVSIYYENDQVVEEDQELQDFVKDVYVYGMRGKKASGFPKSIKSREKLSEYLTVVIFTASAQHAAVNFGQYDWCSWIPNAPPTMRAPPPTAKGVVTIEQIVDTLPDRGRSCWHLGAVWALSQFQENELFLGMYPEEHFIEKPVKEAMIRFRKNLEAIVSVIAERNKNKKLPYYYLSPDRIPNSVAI
Protocol Summary: Inhibition of 5-lipoxygenase-mediated platelet activating factor induced thrombosis in male mice
Type: functional
Express it in mg/kg; write the number only.

[
  {
    "Cpd Smiles": "Cc1nccn1-c1ccc(Sc2cccc(C3(C(N)=O)CCOCC3)c2)cc1",
    "Target Of Assay": "Polyunsaturated fatty acid 5-lipoxygenase (Mus musculus) (UniProt P48999)",
    "ED50 / mg/kg": 3.7
  },
  {
    "Cpd Smiles": "CO/N=C/C1(c2cccc(Sc3ccc(-n4ccnc4C)cc3)c2)CCOCC1",
    "Target Of Assay": "Polyunsaturated fatty acid 5-lipoxygenase (Mus musculus) (UniProt P48999)",
    "ED50 / mg/kg": 2
  },
  {
    "Cpd Smiles": "Cc1nccn1-c1ccc(Sc2cccc([C@]3(C(N)=O)CC4CC[C@H](C3)O4)c2)cc1",
    "Target Of Assay": "Polyunsaturated fatty acid 5-lipoxygenase (Mus musculus) (UniProt P48999)",
    "ED50 / mg/kg": 7
  }
]

Okay, next one:
Please list ED50 recorded for the molecule NC(=O)C1(c2cccc(Sc3ccc(Cn4cccc4)cc3)c2)CCOCC1
3
